Taken from PubChem BioAssay (NCI).

system: PC-3 prostate; assay: NCI tumour cell line growth inhibition, 48 h
As shown below, each of these compounds has a reported GI50 value.

CCC(CO)Nc1nc(NCc2ccccc2O)c2ncn(C(C)C)c2n1 (stereo not given)	5.67 µM
O=C1CCCCCCCC/C=C\CC(c2ccco2)O1 (stereo not given)	36.3 µM
COc1ccccc1CCN=C1NC(=O)/C(=C/c2ccc3ncccc3c2)S1	4.54 µM
C=C(CN1C(=O)[C@H]2CCCN2C(=O)c2ccccc21)c1ccc(C(=O)O)cc1	> 100 µM

Below: the item to evaluate.
Consider the compound shown here: Nc1c(Br)cc(Br)c2c1[nH]c(=O)c1ccccc12 What is its recorded GI50?
14.4 µM

###

tested on: BT-549 breast; experiment: NCI tumour cell line growth inhibition, 48 h
measure-name: TGI

Oc1cc(-c2ccccc2)cn2c1nc1ccccc12	> 100 µM

Consider the molecule shown here: O=C1NC(O)C(c2c[nH]c3ccccc23)=C1c1c[nH]c2ccccc12 (stereo unspecified) What is its recorded TGI?
> 25 µM

Consider the molecule shown here: COc1cc(-c2nn(-c3cccc(NC(=O)Nc4cc(C(F)(F)F)cc(C(F)(F)F)c4)c3)cc2-c2ccncc2)ccc1Cl What is its recorded TGI?
3.45 µM

Consider the molecule shown here: O=C(CNc1ccc2c(c1)C(=O)c1ccccc1C2=O)Nc1ccc2c(c1)C(=O)c1ccccc1C2=O What is its recorded TGI?
1.99 µM

Consider the molecule shown here: C#CCC(Cc1cnc2nc(N)nc(N)c2n1)c1ccc(C(=O)N[C@@H](CCC(=O)O)C(=O)O)cc1 (stereo partly specified) What is its recorded TGI?
> 100 µM

Consider the molecule shown here: CC(C)(O)CS(=O)(=O)Nc1ccc2c(c1)CCN(C(=O)COc1cccnc1)C2 What is its recorded TGI?
> 100 µM

Consider the molecule shown here: O=C(c1ccco1)c1nc2cc(Cl)ccc2[n+]([O-])c1C(F)(F)F What is its recorded TGI?
> 100 µM

Consider the molecule shown here: COC(=O)c1ccccc1CC1Cc2ccc3c(c2C1)CCC3 (stereo unspecified) What is its recorded TGI?
> 100 µM

###

tested on: SNB-19 CNS; assay: NCI tumour cell line growth inhibition, 48 h
As shown below, each of these molecules has a reported TGI value.

In the examples that follow, each entry is paired with its recorded TGI.
Oc1cc(O)c2c(-c3c(O)c(-c4ccc(O)c(O)c4)[o+]c4cc(O)cc(O)c34)c(O)c(-c3ccc(O)c(O)c3)[o+]c2c1	> 100 µM
Ic1ccccc1-c1ccccc1	> 100 µM

Please provide the recorded TGI for Cc1ccc(NN=NCCCCN)cc1 , tested on SNB-19 CNS.
> 100 µM

Please provide the recorded TGI for c1ccc2c(c1)nc1n2CCCn2ccnc2-1 , tested on SNB-19 CNS.
> 100 µM

Please provide the recorded TGI for O=NNc1ccc(S(=O)(=O)c2ccccc2)cn1 , tested on SNB-19 CNS.
> 100 µM

Please provide the recorded TGI for O=C(CNc1ccc2c(c1)C(=O)c1ccccc1C2=O)Nc1ccc2c(c1)C(=O)c1ccccc1C2=O , tested on SNB-19 CNS.
2.9 µM

Please provide the recorded TGI for CCCCc1c2c(nc3c1CCCC3O)CCCC2 (stereo unspecified) , tested on SNB-19 CNS.
> 100 µM

Please provide the recorded TGI for CCN1CCN(c2ccc(Nc3ccnc4ccc5c(nnn5C)c34)cc2)CC1 , tested on SNB-19 CNS.
15.1 µM

Please provide the recorded TGI for Nc1c(Br)cc(Br)c2c1[nH]c(=O)c1ccccc12 , tested on SNB-19 CNS.
57.5 µM

Please provide the recorded TGI for CC(=O)O[C@H]1C(=O)[C@@]2(C)[C@H]([C@H](OC(=O)c3cccc(C(F)(F)F)c3)[C@]3(O)C[C@H](OC(=O)[C@H](O)[C@@H](NC(=O)c4ccccc4)c4ccccc4)C(C)=C1C3(C)C)[C@]1(OC(C)=O)CO[C@@H]1C[C@@H]2O , tested on SNB-19 CNS.
> 25 µM

Please provide the recorded TGI for O=C(CNc1cccc([N+](=O)[O-])c1)Nn1c(-c2ccccc2)nc2ccccc2c1=O , tested on SNB-19 CNS.
4.99 µM

Please provide the recorded TGI for COC(=O)c1sc2ncc3c(c2c1N)CCCCCC3 , tested on SNB-19 CNS.
> 100 µM

Please provide the recorded TGI for COC(=O)c1c2c(c(C)[n+]([O-])c1C)C(=O)C=C(NCc1ccc(F)c(Cl)c1)C2=O , tested on SNB-19 CNS.
2.07 µM

Please provide the recorded TGI for CCOc1ccc(-c2nonc2NC(=O)c2cccc(C)c2)cc1OCC , tested on SNB-19 CNS.
> 100 µM
